Recorded IC50 for the following compounds
# tested.target: Beta-1 adrenergic receptor (Homo sapiens)
# Sequence (P08588 whole entry): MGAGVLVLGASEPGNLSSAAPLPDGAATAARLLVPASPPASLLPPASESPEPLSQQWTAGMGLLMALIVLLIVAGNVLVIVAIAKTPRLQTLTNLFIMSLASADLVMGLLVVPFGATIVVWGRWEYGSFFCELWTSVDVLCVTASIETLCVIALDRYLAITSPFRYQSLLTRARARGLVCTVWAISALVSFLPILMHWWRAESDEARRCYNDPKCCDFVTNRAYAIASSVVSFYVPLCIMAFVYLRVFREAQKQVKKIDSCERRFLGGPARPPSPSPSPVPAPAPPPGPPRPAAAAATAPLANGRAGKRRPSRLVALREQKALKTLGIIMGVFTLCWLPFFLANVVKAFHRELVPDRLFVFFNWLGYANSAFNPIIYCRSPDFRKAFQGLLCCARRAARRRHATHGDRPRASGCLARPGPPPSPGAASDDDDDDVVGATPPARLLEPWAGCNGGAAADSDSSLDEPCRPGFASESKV

compound.string | IC50
CCN(CC)C(=O)[C@@H]1C=C2c3cccc4[nH]cc(c34)C[C@H]2NC1 | > 10 µM

Please find the next compound below.
## Task What reported IC50 corresponds to CCN(CC)C(=O)[C@@H]1C=C2c3cccc4[nH]cc(c34)C[C@H]2N(C(=O)Nc2ccccc2)C1 on Beta-1 adrenergic receptor (Homo sapiens)?
## Result 5.76 µM

---

# tested.target: Cytochrome P450 1A2 (Homo sapiens)
# Sequence (P05177 whole entry): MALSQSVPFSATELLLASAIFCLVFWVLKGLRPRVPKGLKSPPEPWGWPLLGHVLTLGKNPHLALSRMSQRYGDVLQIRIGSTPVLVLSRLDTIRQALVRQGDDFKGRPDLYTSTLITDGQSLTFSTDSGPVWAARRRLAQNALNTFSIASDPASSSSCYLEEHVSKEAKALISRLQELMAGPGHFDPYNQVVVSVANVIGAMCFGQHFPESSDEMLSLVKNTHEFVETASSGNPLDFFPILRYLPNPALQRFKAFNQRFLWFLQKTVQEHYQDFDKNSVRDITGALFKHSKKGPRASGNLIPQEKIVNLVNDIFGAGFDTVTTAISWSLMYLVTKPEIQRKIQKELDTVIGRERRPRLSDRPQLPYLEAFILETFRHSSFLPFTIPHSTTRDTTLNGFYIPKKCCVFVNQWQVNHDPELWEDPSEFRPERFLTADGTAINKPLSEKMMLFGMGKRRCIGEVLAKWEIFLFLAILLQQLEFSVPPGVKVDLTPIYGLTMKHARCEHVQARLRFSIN
parameter: IC50

## Task Lab note: need IC50 with Cytochrome P450 1A2 (Homo sapiens) for entry CCN(CC)C(=O)[C@@H]1C=C2c3cccc4[nH]cc(c34)C[C@H]2N(C(=O)Nc2ccccc2)C1 , please look it up.
## Result > 10 µM
